Examples of compounds with documented pKi follow.
- system: Sodium-dependent dopamine transporter (Homo sapiens)
- Sequence (Q01959 whole entry): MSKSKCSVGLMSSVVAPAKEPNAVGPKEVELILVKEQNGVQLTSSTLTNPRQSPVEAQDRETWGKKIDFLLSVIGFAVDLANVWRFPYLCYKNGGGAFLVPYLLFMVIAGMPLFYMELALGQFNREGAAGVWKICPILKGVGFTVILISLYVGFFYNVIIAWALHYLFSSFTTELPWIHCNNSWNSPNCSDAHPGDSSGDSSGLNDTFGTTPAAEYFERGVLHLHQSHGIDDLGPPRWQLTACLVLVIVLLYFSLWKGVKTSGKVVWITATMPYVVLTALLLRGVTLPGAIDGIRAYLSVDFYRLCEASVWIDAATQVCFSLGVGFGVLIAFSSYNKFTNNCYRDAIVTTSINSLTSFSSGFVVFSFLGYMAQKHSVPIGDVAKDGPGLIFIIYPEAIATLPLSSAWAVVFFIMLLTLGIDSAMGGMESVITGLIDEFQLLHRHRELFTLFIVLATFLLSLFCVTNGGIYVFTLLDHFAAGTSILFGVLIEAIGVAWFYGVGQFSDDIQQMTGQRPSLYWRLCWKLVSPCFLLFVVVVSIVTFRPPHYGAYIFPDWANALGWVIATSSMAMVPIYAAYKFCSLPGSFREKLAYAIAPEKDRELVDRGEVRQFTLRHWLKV
- assay notes: Displacement of [125I]RTI55 from human recombinant DAT expressed in HEK293 cells
Notebook: values listed as pKi are -log10 of the concentration (mol/L).

Consider the worked cases shown below.
compound	readout kind	reported result
NCC[C@H](Oc1ccc(C(F)(F)F)cc1)c1ccccc1	pKi	5.34
COc1ccc(C2=NN(CCCCCNCC[C@H](Oc3ccc(C(F)(F)F)cc3)c3ccccc3)C(=O)C3CC=CCC23)cc1OC (stereo partly specified)	pKi	5.57
NCC[C@@H](Oc1ccc(C(F)(F)F)cc1)c1ccccc1	pKi	5.44

Please turn your attention to the following entry.
Prompt line: Provide pKi value for the following compound: COc1ccc(C2=NN(CCCCCNCC[C@@H](Oc3ccc(C(F)(F)F)cc3)c3ccccc3)C(=O)C3CC=CCC23)cc1OC (stereo partly specified)
Response line: 5.35

====

Values of IC50 reported for 3',5'-cyclic-AMP phosphodiesterase 4D (Homo sapiens, UniProt Q08499) appear below.

Consider the worked cases shown below.
compound	system	IC50
COc1ccc(C2=NNC(=O)C3CC=CCC23)cc1OC (stereo not drawn)	3',5'-cyclic-AMP phosphodiesterase 4D (Homo sapiens, UniProt Q08499)	213 nM
COc1ccc(C2=NN(CCCCCNCC[C@H](Oc3ccc(C(F)(F)F)cc3)c3ccccc3)C(=O)C3CC=CCC23)cc1OC (stereo partly drawn)	3',5'-cyclic-AMP phosphodiesterase 4D (Homo sapiens, UniProt Q08499)	253 nM

Please turn your attention to the following entry.
Prompt line: Provide IC50 value for the following compound: NCC[C@H](Oc1ccc(C(F)(F)F)cc1)c1ccccc1 [SEPROXETINE]
Response line: ≥ 100000 nM

====

- system: Sodium-dependent noradrenaline transporter (Homo sapiens, UniProt P23975)
- Sequence (P23975 whole entry): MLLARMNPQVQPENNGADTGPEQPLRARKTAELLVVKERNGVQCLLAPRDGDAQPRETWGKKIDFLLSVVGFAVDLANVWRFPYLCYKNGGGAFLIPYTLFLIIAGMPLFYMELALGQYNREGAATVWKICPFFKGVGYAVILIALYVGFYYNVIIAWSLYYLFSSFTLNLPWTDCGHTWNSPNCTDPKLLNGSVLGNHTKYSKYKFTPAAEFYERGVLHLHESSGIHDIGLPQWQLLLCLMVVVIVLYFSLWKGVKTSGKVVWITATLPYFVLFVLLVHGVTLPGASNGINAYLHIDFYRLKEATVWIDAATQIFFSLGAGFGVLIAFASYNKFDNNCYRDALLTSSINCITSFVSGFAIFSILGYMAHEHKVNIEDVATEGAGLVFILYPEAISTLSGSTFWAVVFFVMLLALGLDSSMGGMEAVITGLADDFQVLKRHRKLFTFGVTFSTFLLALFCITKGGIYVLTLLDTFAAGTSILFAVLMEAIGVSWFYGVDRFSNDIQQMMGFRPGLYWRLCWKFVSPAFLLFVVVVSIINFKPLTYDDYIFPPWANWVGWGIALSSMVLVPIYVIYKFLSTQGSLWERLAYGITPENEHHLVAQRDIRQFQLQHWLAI
- assay notes: Inhibition of [3H]NE from human recombinant NET expressed in HEK293 cells
Examples of molecules with documented pIC50 follow.
Notebook: values listed as pIC50 are -log10 of the concentration (mol/L).

Consider the worked cases shown below.
molecule	system	reported result
COc1ccc(C2=NN(CCCCCNCC[C@@H](Oc3ccc(C(F)(F)F)cc3)c3ccccc3)C(=O)C3CC=CCC23)cc1OC (stereo not given in full)	Sodium-dependent noradrenaline transporter (Homo sapiens, UniProt P23975)	5.17
NCC[C@@H](Oc1ccc(C(F)(F)F)cc1)c1ccccc1	Sodium-dependent noradrenaline transporter (Homo sapiens, UniProt P23975)	5.70
COc1ccc(C2=NN(CCCCCNCC[C@H](Oc3ccc(C(F)(F)F)cc3)c3ccccc3)C(=O)C3CC=CCC23)cc1OC (stereo not given in full)	Sodium-dependent noradrenaline transporter (Homo sapiens, UniProt P23975)	5.18

Please turn your attention to the following entry.
Prompt line: Report its pIC50 with Sodium-dependent noradrenaline transporter (Homo sapiens, UniProt P23975) as the test system: NCC[C@H](Oc1ccc(C(F)(F)F)cc1)c1ccccc1 [SEPROXETINE]
Response line: 5.55

====

- system: Sodium-dependent dopamine transporter (Homo sapiens)
- assay notes: Inhibition of [3H]DA from human recombinant DAT expressed in HEK293 cells
readout kind: pIC50
Notebook: values listed as pIC50 are -log10 of the concentration (mol/L).

Consider the worked cases shown below.
compound	pIC50
COc1ccc(C2=NN(CCCCCNCC[C@H](Oc3ccc(C(F)(F)F)cc3)c3ccccc3)C(=O)C3CC=CCC23)cc1OC (stereo partly specified)	5.22
NCC[C@@H](Oc1ccc(C(F)(F)F)cc1)c1ccccc1	5.15

Please turn your attention to the following entry.
Prompt line: Provide pIC50 value for the following compound: NCC[C@H](Oc1ccc(C(F)(F)F)cc1)c1ccccc1 [SEPROXETINE]
Response line: 5.19
